- Target or test system: RAC-alpha serine/threonine-protein kinase (Homo sapiens)
- Sequence (P31749 whole entry): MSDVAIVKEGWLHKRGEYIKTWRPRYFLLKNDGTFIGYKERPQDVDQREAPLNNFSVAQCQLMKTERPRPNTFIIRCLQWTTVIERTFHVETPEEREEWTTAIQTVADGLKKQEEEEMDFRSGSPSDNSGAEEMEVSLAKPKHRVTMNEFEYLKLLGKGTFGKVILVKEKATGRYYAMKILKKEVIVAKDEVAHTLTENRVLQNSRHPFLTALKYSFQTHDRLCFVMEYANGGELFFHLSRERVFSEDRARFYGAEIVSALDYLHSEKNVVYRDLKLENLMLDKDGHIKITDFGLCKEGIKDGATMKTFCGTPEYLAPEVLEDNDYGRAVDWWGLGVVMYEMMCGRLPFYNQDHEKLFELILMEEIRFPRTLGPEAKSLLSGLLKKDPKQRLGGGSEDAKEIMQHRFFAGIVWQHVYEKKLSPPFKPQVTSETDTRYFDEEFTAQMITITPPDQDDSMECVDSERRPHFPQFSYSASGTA
- Protocol description: Inhibition of sulfhydryl-labeled human recombinant Akt1 expressed in baculovirus by affinity capillary electrophoresis assay
Outcome measure: IC50

{"Compound": "CC1OC(=O)c2cc(O)c(O)c(O)c21 (stereo unspecified)", "Recorded measurement": "19.7 µM"}

* * *

- Target or test system: RAC-alpha serine/threonine-protein kinase (Homo sapiens)
- Protocol description: Inhibition of sulfhydryl-labeled human recombinant Akt1 expressed in baculovirus assessed as phosphorylation of recombinant Bad protein by Western blotting

{"Molecule": "CC1OC(=O)c2cc(O)c(O)c(O)c21 (stereo unspecified)", "IC50 / µM": 30.4}

Data origin: ChEMBL document CHEMBL1148981
